Target: human NaPi-IIb (Homo sapiens)
Construct: expressed in transfected cells
Sequence (O95436 whole entry): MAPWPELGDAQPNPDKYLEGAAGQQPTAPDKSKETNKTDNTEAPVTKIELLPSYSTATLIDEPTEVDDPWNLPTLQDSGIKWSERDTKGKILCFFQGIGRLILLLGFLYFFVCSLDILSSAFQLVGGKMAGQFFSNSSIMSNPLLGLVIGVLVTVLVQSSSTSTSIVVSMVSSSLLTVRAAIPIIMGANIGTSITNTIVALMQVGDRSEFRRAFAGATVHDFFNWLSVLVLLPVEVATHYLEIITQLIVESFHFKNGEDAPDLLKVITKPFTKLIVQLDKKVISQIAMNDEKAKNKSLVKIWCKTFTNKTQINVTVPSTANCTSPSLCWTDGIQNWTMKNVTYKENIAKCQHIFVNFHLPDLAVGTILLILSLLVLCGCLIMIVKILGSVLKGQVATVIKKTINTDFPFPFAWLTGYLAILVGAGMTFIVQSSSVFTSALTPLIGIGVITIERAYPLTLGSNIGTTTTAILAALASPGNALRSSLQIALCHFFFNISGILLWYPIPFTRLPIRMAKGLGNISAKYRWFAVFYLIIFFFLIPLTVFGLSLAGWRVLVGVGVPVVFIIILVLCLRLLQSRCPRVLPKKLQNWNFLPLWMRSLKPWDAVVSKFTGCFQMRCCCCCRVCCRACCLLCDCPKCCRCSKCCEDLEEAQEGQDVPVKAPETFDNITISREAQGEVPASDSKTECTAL
Assay: Inhibitory effect on 33PO4 uptake into human NaPi-IIb-expressing CHO cells
Type: cell-based
Conditions: read-out: IC50 against 33PO4 uptake into human NaPi-IIb-expressing cells
property: pIC50
Remember, pIC50 is on a log scale: it is -log10 of the molar concentration.

Worked examples follow.
INSERT INTO results (compound, value_reported) VALUES
  ('C[C@@H]1COC[C@H](C)N1CCOc1ccc(CN2C(=O)C(C(=O)Nc3ccc(C(F)(F)F)cc3-c3cc(C(F)(F)F)ncn3)=C(O)C3(CCCC3)N2C)c(F)c1F [Example 370]', 4.74),
  ('CN(C[C@H](O)[C@@H](O)[C@H](O)[C@H](O)CO)C(=O)COCCOCCOCCOCCOc1ccc(CN2C(=O)C(C(=O)Nc3ccc(C(F)(F)F)cc3-c3cc(C(F)(F)F)ncn3)=C(O)C3(CCCC3)N2C)c(F)c1F [Example 441]', 4.67);

Continue with the compound presented below.
For reference, reported pIC50 for CN1N(Cc2ccc(OCCCCCOCCCO)c(F)c2F)C(=O)C(C(=O)Nc2ccc(C(F)(F)F)cc2-c2cc(C(F)(F)F)ncn2)=C(O)C12CCCC2 [Example 400] stands at 5.04
